tested system: T1, soluble heterodimeric hCD3ε/δ.mFc protein (human)
T1 construct: also called soluble human CD3; human CD3 heterodimeric protein
T1 sequence (P07766 23-126, stated change not applied, chain 1 of 2): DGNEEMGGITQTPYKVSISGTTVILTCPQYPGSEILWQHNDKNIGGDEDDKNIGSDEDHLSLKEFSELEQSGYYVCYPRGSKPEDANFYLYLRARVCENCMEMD
T1 sequence (P04234 22-105, stated change not applied, chain 2 of 2, further chain): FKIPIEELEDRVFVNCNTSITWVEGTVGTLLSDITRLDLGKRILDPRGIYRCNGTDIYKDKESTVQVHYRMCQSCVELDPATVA
assay overview: SPR 37 C, antigen-capture format
recorded endpoint: T½ (min)
Give a bare numeral; the unit min is implied.

T½ for BSPSMA/CD3-900 (bispecific antibody) chain 1: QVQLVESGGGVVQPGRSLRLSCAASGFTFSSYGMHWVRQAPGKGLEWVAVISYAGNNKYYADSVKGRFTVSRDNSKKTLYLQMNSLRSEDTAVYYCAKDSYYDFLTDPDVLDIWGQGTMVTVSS chain 2: EVQLVESGGGLVQPGRSLRLSCAASGFTFDDYSMHWVRQAPGKGLEWVSGISWNSGSKGYADSVKGRFTISRDNAKNSLYLQMNSLRAEDTALYYCAKDGSGYGKFYHYGLDVWGQGTTVTVSS chain 3: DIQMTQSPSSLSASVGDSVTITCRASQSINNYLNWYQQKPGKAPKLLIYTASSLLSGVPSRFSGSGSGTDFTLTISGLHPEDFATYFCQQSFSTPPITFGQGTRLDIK is 2.3
